This collection of values is drawn from PubChem BioAssay (NCATS).

# assayOverview: Stat Signaling Pathway (AID 446);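 note: ME-180 cervical cancer cells given 40 pM IL-6 alongside compound; SIE-controlled beta-lactamase reporter measured as 460/530 nm FRET emission ratio; % is set by controls: 0 for no effect and ±100 for the full control effect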
# conditionLabel: ME-180 (cervical carcinoma) SIE beta-lactamase reporter, IL-6 stimulated, 5 h; at 17.2 µM (top of the series) unless noted
Records with an inconclusive call do not appear. Activity calls are given as the source filed them. Calls come from the whole dose curve; as a rule, active = well fitted curve in either direction with a large enough effect (not every such curve was filed as active); inconclusive = small, poorly fitted or top-dose-only effect, or another doubt; inactive = flat fitted curve, though single readings scatter.
testReadout: activity, negative = inhibition

For `O=C1[C@@H]2[C@H](C(=O)N1O)[C@H]1C=C[C@@H]2C1` , what is its reported activity, negative = inhibition?
10.4% (inactive)

What do you have for `Cn1ncc2c(Nc3ccccc3Br)ncnc21` ?
-3.41% (inactive)

What do you have for COc1ccc2c(c1)[nH]c1c(=O)n(CC3CCCO3)cnc12 (stereo not drawn) ?
2.17% (inactive)

What do you have for CC1CN(C2CCN(S(=O)(=O)Cc3ccccc3)CC2)CC(C)O1 (stereo not drawn) ?
5.06% (inactive)

What do you have for `Cc1cc(=O)n(CCC(=O)O)c2ccccc12` ?
3.32% (inactive)

What do you have for `C=CCc1cccc(CNc2nc3ccccc3n2C(C)C)c1O` ?
-22.2% (inactive)

What do you have for `N#Cc1nc(COc2ccccc2)oc1N1CCCC1` ?
0.032% (inactive)

What do you have for `CCSc1nnc(NC(=O)NCC(F)(F)F)s1` ?
16.4% (inactive)

What do you have for `COc1ccc2c(c1)n([O-])c1c([n+]2=O)CCC1` ?
7.82% (inactive)

What do you have for CCCOc1cccc(CN2CCCCC2c2cccnc2)c1 (stereo not drawn) ?
0.49% (inactive)

What do you have for `CCCCc1nc(N2CCOCC2)c(C#N)c2c1CCCC2` ?
-8.28% (inactive)

What do you have for `CC(C)(C)NCc1cc2ccccc2[nH]c1=O` ?
3.71% (inactive)

What do you have for CC(O)Cn1ccccc1=N (stereo not drawn) ?
3.45% (inactive)

What do you have for `O=C(c1ccc(F)cc1)N1CCC(N2CCCCCC2)CC1` ?
-3.47% (inactive)

What do you have for `Cc1c(Cl)c(C(F)(F)F)nn1CC(=O)N1CCSCC1` ?
5.37% (inactive)

What do you have for COc1ccc(CCn2c(C)cc3c(c2=O)C(c2ccc4c(c2)OCO4)C(C#N)=C(N)O3)cc1OC (stereo not drawn) ?
-21.6% (inactive)

What do you have for `COc1cc(-n2c3nc4ccccc4nc3c3c(=O)n(Cc4ccco4)cnc32)cc(OC)c1OC` ?
3.4% (inactive)

What do you have for CCOC(=O)C(C#N)C(Cc1ccccc1)c1ccco1 (stereo not drawn) ?
-9.08% (inactive)

What do you have for `CC1(C)Cc2c(c(N3CCOCC3)nc3sc4c(=O)[nH]cnc4c23)CS1` ?
-18.3% (inactive)

What do you have for `CC1(C)C/C(=C(/C#N)C(N)=O)CCO1` ?
4.37% (inactive)

What do you have for `COc1cc(-c2nn3c(-c4ccco4)nnc3s2)cc(OC)c1OC` ?
-1.97% (inactive)

What do you have for `C/C(NC(=O)c1cccs1)=C1\C(=O)C[C@@H]2[C@H]1C2(C)C` ?
-12.2% (inactive)

What do you have for CCCCOc1ccc(C(=O)N2CCCC2C(=O)O)cc1 (stereo not drawn) ?
9.6% (inactive)

What do you have for CCCOc1ccc(/C(O)=C2/C(=O)C(=O)N(CCCn3ccnc3)C2c2cccs2)cc1 (stereo not drawn) ?
6% (inactive)

What do you have for `c1coc(-c2nnc3sc(C4CCCCC4)nn23)c1` ?
6.55% (inactive)

What do you have for `O=C(NCc1cccnc1)c1ccc(=O)oc1` ?
0.949% (inactive)

What do you have for `CN(C)c1nc(OCCNC(=O)Nc2ccccc2)nc(N(C)C)n1` ?
-7.19% (inactive)

What do you have for `O=S(=O)(c1ccc(Cl)cc1)N1CCC(N2CCCCCC2)CC1` ?
3.47% (inactive)

What do you have for CCN(CC)CCCN1C(=O)C(=O)/C(=C(/O)c2ccccc2)C1c1cc(OC)ccc1OC (stereo not drawn) ?
3.31% (inactive)

What do you have for `Cc1nc2sc3c(NCc4ccco4)ncnc3c2c2c1COC(C)(C)C2` ?
-18.1% (inactive)

What do you have for `COc1cc([C@H]2c3cc4c(cc3[C@@H](O[C@H]3O[C@H]5CO[C@@H](C)O[C@H]5[C@@H](O)[C@@H]3O)[C@@H]3COC(=O)[C@H]23)OCO4)cc(OC)c1O` ?
-20.6% (inactive)

What do you have for CC1(C)CC(NC(=O)C23CCC(C)(/C(=N/O)C2)C3(C)C)CC(C)(C)N1 (stereo not drawn) ?
0.446% (inactive)

What do you have for `CCc1[nH]c(=O)c(C#N)c2c1CSC(C)(C)C2` ?
9.69% (inactive)

What do you have for CCOc1ccc(CSC(CC(=O)O)C(=O)O)cc1 (stereo not drawn) ?
11.1% (inactive)

What do you have for COC(=O)c1ccc(C2/C(=C(\O)c3ccc4c(c3)OCCO4)C(=O)C(=O)N2CCCN(C)C)cc1 (stereo not drawn) ?
-5.8% (inactive)

What do you have for `CCCC(=O)N(Cc1cc2ccccc2[nH]c1=O)c1ccccc1OC` ?
5.08% (inactive)

What do you have for CCOc1ccc(CCNC(=O)C(O)c2ccccc2)cc1 (stereo not drawn) ?
18.6% (inactive)

What do you have for COc1ccccc1N(O)C1CC(=O)N(c2ccc(F)cc2)C1=O (stereo not drawn) ?
1.38% (inactive)

What do you have for `CCCCCn1c2nc3ccccc3nc2c2c(=O)n(CC(C)C)cnc21` ?
-12.9% (inactive)

What do you have for `CCOc1ccc(N=C(NC#N)SCC(=O)NC2CC2)cc1` ?
-16.7% (inactive)

What do you have for `CC(C)CNC(=O)c1c(N)n(/N=C/c2ccccn2)c2nc3ccccc3nc12` ?
9.58% (inactive)

What do you have for `C=CC[N+](C)(C)CCCNC(=O)/C=N/O` ?
4.74% (inactive)

What do you have for `CCCCOc1ccccc1C(=O)NCCCCCC(=O)O` ?
2.29% (inactive)

What do you have for `Cc1nc2ccccc2cc1O` ?
5.42% (inactive)

What do you have for `N#Cc1ccc(OC(=O)c2ccc(N=C(N)N)cc2)cc1` ?
-5.61% [at 7.69 µM] (inactive)

What do you have for `COc1ccc(OC)c2c1CCC2=O` ?
6.79% (inactive)

What do you have for `Cc1c(O)c(CN2CCCC2)cc2c1oc(=O)c1ccccc12` ?
-9.48% (inactive)

What do you have for `Cc1ccc(C)n1Cc1ccc(C(=O)O)cc1` ?
6% (inactive)
